From: the supplement of paper PMC12350171

Tested on: Yersinia pseudotuberculosis
TEST PROTOCOL: growth AUC normalised to DMSO control (fraction of control); higher = less growth inhibition, active = hit call of the paper
CONDITION DETAILS: 20 µM
Structures can show the parent of a compound that is named as a salt.
Assign Fulfilled whenever growth AUC normalised to DMSO control does not fall below 1; assign Not fulfilled whenever it does.

>  <MOLECULE>
CS(=O)(=O)OCCCCOS(C)(=O)=O [Busulfan]

>  <DISCRETE LABEL>
Fulfilled

$$$$
>  <MOLECULE>
CO[C@@]1(NC(=O)Cc2cccs2)C(=O)N2C(C(=O)O)=C(COC(N)=O)CS[C@@H]21 [Cefoxitin sodium salt]

>  <DISCRETE LABEL>
Not fulfilled

$$$$

---

Measured growth AUC normalised to DMSO control of individual entries
Test system: S. enterica typhimurium tolC KO;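 further: active when median AUC fell below 0.1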
TEST PROTOCOL: growth AUC normalised to DMSO control (median) (fraction of control); higher = less growth inhibition, active = hit call of the paper
CONDITION DETAILS: 20 µM
Where a name gives a salt, the structure may show the parent alone.

>  <MOLECULE>
CC(C)=CCOc1ccc(/C=C/C(=O)c2ccc(OCC=C(C)C)cc2OCC(=O)O)cc1 [Sofalcone]

>  <ASSAY TARGET>
S. enterica typhimurium tolC KO;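 further: active when median AUC fell below 0.1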

>  <growth AUC normalised to DMSO control>
0.902

$$$$
>  <MOLECULE>
Cn1c(=O)c2c(ncn2CC(O)CO)n(C)c1=O (stereo unspecified) [Diprophylline]

>  <ASSAY TARGET>
S. enterica typhimurium tolC KO;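 further: active when median AUC fell below 0.1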

>  <growth AUC normalised to DMSO control>
0.998

$$$$
>  <MOLECULE>
COC(=O)C1=C(C)NC(C)=C(C(=O)OC)C1c1ccccc1[N+](=O)[O-] [Nifedipine]

>  <ASSAY TARGET>
S. enterica typhimurium tolC KO;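 further: active when median AUC fell below 0.1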

>  <growth AUC normalised to DMSO control>
0.994

$$$$
>  <MOLECULE>
Cc1ncc([N+](=O)[O-])n1CCO [Metronidazole]

>  <ASSAY TARGET>
S. enterica typhimurium tolC KO;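 further: active when median AUC fell below 0.1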

>  <growth AUC normalised to DMSO control>
0.991

$$$$
>  <MOLECULE>
Clc1ccc(CCC(Cn2ccnc2)Sc2c(Cl)cccc2Cl)cc1 (stereo unspecified) [Butoconazole nitrate]

>  <ASSAY TARGET>
S. enterica typhimurium tolC KO;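 further: active when median AUC fell below 0.1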

>  <growth AUC normalised to DMSO control>
0.999

$$$$
>  <MOLECULE>
Clc1ccc(C(Cn2ccnc2)OCc2ccsc2Cl)c(Cl)c1 (stereo unspecified) [Tioconazole]

>  <ASSAY TARGET>
S. enterica typhimurium tolC KO;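 further: active when median AUC fell below 0.1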

>  <growth AUC normalised to DMSO control>
0.903

$$$$
>  <MOLECULE>
C[C@@H](O[C@H]1OCCN(Cc2n[nH]c(=O)[nH]2)[C@H]1c1ccc(F)cc1)c1cc(C(F)(F)F)cc(C(F)(F)F)c1 [Aprepitant]

>  <ASSAY TARGET>
S. enterica typhimurium tolC KO;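 further: active when median AUC fell below 0.1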

>  <growth AUC normalised to DMSO control>
0.997

$$$$
>  <MOLECULE>
CN(C)CCC(c1ccc(Br)cc1)c1ccccn1 (stereo unspecified) [Brompheniramine maleate]

>  <ASSAY TARGET>
S. enterica typhimurium tolC KO;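 further: active when median AUC fell below 0.1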

>  <growth AUC normalised to DMSO control>
0.856

$$$$
>  <MOLECULE>
CCCOc1ccc(C(=O)OCCN(CC)CC)cc1N [Proparacaine hydrochloride]

>  <ASSAY TARGET>
S. enterica typhimurium tolC KO;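 further: active when median AUC fell below 0.1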

>  <growth AUC normalised to DMSO control>
1.01

$$$$
>  <MOLECULE>
Nc1nc(F)nc2c1ncn2[C@@H]1O[C@H](CO)[C@@H](O)[C@@H]1O [Fludarabine]

>  <ASSAY TARGET>
S. enterica typhimurium tolC KO;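 further: active when median AUC fell below 0.1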

>  <growth AUC normalised to DMSO control>
0.991

$$$$
>  <MOLECULE>
C=CCc1ccccc1OCC(O)CNC(C)C (stereo unspecified) [Alprenolol hydrochloride]

>  <ASSAY TARGET>
S. enterica typhimurium tolC KO;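 further: active when median AUC fell below 0.1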

>  <growth AUC normalised to DMSO control>
0.997

$$$$
>  <MOLECULE>
CN[C@@H]1[C@@H](O[C@H]2O[C@H](CO)[C@@H](N)[C@H](O)[C@H]2O)OC2C[C@@H](N)[C@@H](O[C@H]3[C@H](O)[C@@H](O)[C@H](N)C[C@@H]3N)OC2[C@@H]1O (stereo partly specified) [Apramycin]

>  <ASSAY TARGET>
S. enterica typhimurium tolC KO;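 further: active when median AUC fell below 0.1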

>  <growth AUC normalised to DMSO control>
0.996

$$$$
>  <MOLECULE>
CNCC(O)c1ccc(O)c(O)c1 (stereo unspecified) [Racepinephrine hydrochloride]

>  <ASSAY TARGET>
S. enterica typhimurium tolC KO;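 further: active when median AUC fell below 0.1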

>  <growth AUC normalised to DMSO control>
1

$$$$
>  <MOLECULE>
CC(=O)OCC(CCn1cnc2cnc(N)nc21)COC(C)=O [Famciclovir]

>  <ASSAY TARGET>
S. enterica typhimurium tolC KO;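 further: active when median AUC fell below 0.1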

>  <growth AUC normalised to DMSO control>
0.976

$$$$
>  <MOLECULE>
CCCCNc1cc(C(=O)O)cc(S(N)(=O)=O)c1Oc1ccccc1 [Bumetanide]

>  <ASSAY TARGET>
S. enterica typhimurium tolC KO;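 further: active when median AUC fell below 0.1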

>  <growth AUC normalised to DMSO control>
0.991

$$$$
>  <MOLECULE>
COc1ccc(C[C@@H]2c3cc(OC)c(OC)cc3CC[N@+]2(C)CCC(=O)OCCCCCOC(=O)CC[N@@+]2(C)CCc3cc(OC)c(OC)cc3[C@H]2Cc2ccc(OC)c(OC)c2)cc1OC [Cisatracurium besylate]

>  <ASSAY TARGET>
S. enterica typhimurium tolC KO;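 further: active when median AUC fell below 0.1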

>  <growth AUC normalised to DMSO control>
0.994

$$$$
>  <MOLECULE>
OC[C@H]1O[C@@H](n2cnc3cncnc32)[C@H](O)[C@@H]1O [Nebularine]

>  <ASSAY TARGET>
S. enterica typhimurium tolC KO;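 further: active when median AUC fell below 0.1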

>  <growth AUC normalised to DMSO control>
0.997

$$$$
>  <MOLECULE>
NC(=O)N1c2ccccc2CC(=O)c2ccccc21 [Oxcarbazepine]

>  <ASSAY TARGET>
S. enterica typhimurium tolC KO;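 further: active when median AUC fell below 0.1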

>  <growth AUC normalised to DMSO control>
1

$$$$
>  <MOLECULE>
CCOC(=O)[C@H](CCc1ccccc1)N[C@@H](C)C(=O)N1Cc2ccccc2C[C@H]1C(=O)O [Quinapril hydrochloride]

>  <ASSAY TARGET>
S. enterica typhimurium tolC KO;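 further: active when median AUC fell below 0.1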

>  <growth AUC normalised to DMSO control>
0.996

$$$$
>  <MOLECULE>
c1ccc(CNc2ncnc3nc[nH]c23)cc1 [Aminopurine, 6-benzyl]

>  <ASSAY TARGET>
S. enterica typhimurium tolC KO;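 further: active when median AUC fell below 0.1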

>  <growth AUC normalised to DMSO control>
0.995

$$$$
>  <MOLECULE>
O=c1oc2cc(O)ccc2s1 [Tioxolone]

>  <ASSAY TARGET>
S. enterica typhimurium tolC KO;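 further: active when median AUC fell below 0.1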

>  <growth AUC normalised to DMSO control>
0.999

$$$$
>  <MOLECULE>
CCCCNc1c(C(=O)OCC)c(C)nc2c1cnn2CC [Tracazolate hydrochloride]

>  <ASSAY TARGET>
S. enterica typhimurium tolC KO;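 further: active when median AUC fell below 0.1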

>  <growth AUC normalised to DMSO control>
0.952

$$$$
>  <MOLECULE>
O=C(NCCN1CCOCC1)c1ccc(Cl)cc1 [Moclobemide]

>  <ASSAY TARGET>
S. enterica typhimurium tolC KO;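 further: active when median AUC fell below 0.1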

>  <growth AUC normalised to DMSO control>
0.996

$$$$
>  <MOLECULE>
CC(=O)NS(=O)(=O)c1ccc(NC(=O)c2ccccc2C(=O)O)cc1 [Phthalylsulfacetamide]

>  <ASSAY TARGET>
S. enterica typhimurium tolC KO;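 further: active when median AUC fell below 0.1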

>  <growth AUC normalised to DMSO control>
1

$$$$
>  <MOLECULE>
CN1[C@@H]2CC[C@H]1C[C@@H](OC(=O)c1c[nH]c3ccccc13)C2 [Tropisetron hydrochloride]

>  <ASSAY TARGET>
S. enterica typhimurium tolC KO;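 further: active when median AUC fell below 0.1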

>  <growth AUC normalised to DMSO control>
1

$$$$
>  <MOLECULE>
CCc1c2c(nc3ccc(OC(=O)N4CCC(N5CCCCC5)CC4)cc13)-c1cc3c(c(=O)n1C2)COC(=O)[C@]3(O)CC [Irinotecan hydrochloride trihydrate]

>  <ASSAY TARGET>
S. enterica typhimurium tolC KO;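 further: active when median AUC fell below 0.1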

>  <growth AUC normalised to DMSO control>
0.986

$$$$
>  <MOLECULE>
O=C1O[C@H]([C@@H](O)CO)C(O)=C1O [Ascorbic acid]

>  <ASSAY TARGET>
S. enterica typhimurium tolC KO;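 further: active when median AUC fell below 0.1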

>  <growth AUC normalised to DMSO control>
0.997

$$$$
>  <MOLECULE>
CC1=C(C(=O)O)N2C(=O)[C@@H](NC(=O)[C@H](N)c3ccccc3)[C@H]2SC1 [Cephalexin monohydrate]

>  <ASSAY TARGET>
S. enterica typhimurium tolC KO;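 further: active when median AUC fell below 0.1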

>  <growth AUC normalised to DMSO control>
0.968

$$$$
>  <MOLECULE>
OC(CCN1CCCCC1)(c1ccccc1)C1CCCCC1 (stereo unspecified) [Trihexyphenidyl-D,L hydrochloride]

>  <ASSAY TARGET>
S. enterica typhimurium tolC KO;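 further: active when median AUC fell below 0.1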

>  <growth AUC normalised to DMSO control>
0.986

$$$$
>  <MOLECULE>
Cc1cc(NS(=O)(=O)c2ccc(N)cc2)no1 [Sulfamethoxazole]

>  <ASSAY TARGET>
S. enterica typhimurium tolC KO;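 further: active when median AUC fell below 0.1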

>  <growth AUC normalised to DMSO control>
0.959

$$$$
>  <MOLECULE>
CNCCCC12CCC(c3ccccc31)c1ccccc12 [Maprotiline hydrochloride]

>  <ASSAY TARGET>
S. enterica typhimurium tolC KO;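 further: active when median AUC fell below 0.1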

>  <growth AUC normalised to DMSO control>
0.982

$$$$
